biological target: EeAChE (Electrophorus electricus); construct: purchased Sigma–Aldrich; test: biochemical; assay type: biochemical
Sequence (O42275 24-633): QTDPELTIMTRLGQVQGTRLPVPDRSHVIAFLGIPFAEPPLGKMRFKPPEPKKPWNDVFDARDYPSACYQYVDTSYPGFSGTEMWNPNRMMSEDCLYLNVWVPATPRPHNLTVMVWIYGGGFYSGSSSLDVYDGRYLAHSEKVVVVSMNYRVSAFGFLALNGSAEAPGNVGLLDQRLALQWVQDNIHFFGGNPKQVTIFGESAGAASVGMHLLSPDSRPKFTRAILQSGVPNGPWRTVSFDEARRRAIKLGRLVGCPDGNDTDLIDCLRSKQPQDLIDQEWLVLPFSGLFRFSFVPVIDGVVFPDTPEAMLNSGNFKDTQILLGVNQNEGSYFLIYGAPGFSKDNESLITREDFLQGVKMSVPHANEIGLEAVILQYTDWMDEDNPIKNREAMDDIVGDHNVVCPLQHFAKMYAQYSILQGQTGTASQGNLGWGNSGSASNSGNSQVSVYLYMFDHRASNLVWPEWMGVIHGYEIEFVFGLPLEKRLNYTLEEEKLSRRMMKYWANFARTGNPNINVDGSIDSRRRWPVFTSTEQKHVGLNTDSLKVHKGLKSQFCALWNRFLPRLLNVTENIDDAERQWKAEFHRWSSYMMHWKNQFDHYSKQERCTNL
pIC50: −log10 of the molar value.

| STRUCTURE NOTATION | SIGN QUALIFIER | pIC50 |
| --- | --- | --- |
| CCN(CC)CCCn1ccc2ccccc21 | < | 4.30 |
| O=C1c2ccccc2C(=O)N1CCCCCCN1CCc2ccccc2C1 | = | 6.41 |
| O=C1c2ccccc2C(=O)N1CCCCCCCCN1CCCC1 | = | 6.55 |
| O=C1c2ccccc2C(=O)N1CCCCCCN1CCOCC1 | = | 4.76 |
| O=C1c2ccccc2C(=O)N1CCCCCCCN1CCc2ccccc2C1 | = | 6.16 |
| CCN(CC)CCCCCCCN1CCc2ccccc2C1 | = | 4.76 |
| CCN(CC)CCCCCCCCN1CCc2ccccc2C1 | = | 5.33 |
| O=C1c2ccccc2S(=O)(=O)N1CCCCCCCNCc1cccc(Cl)c1 | = | 6.03 |
| O=C1c2ccccc2C(=O)N1CCCCCCCCN1CCOCC1 | = | 5.35 |
| O=C1c2ccccc2C(=O)N1CCCCCN1CCCC1 | = | 6.11 |

---

biological target: EqBuChE (Equus caballus, UniProt P81908); construct: BuChE from equine serum (EqBuChE, Sigma–Aldrich); purchased Sigma–Aldrich; host or cells: equine serum; assay: biochemical
Sequence (P81908 whole entry): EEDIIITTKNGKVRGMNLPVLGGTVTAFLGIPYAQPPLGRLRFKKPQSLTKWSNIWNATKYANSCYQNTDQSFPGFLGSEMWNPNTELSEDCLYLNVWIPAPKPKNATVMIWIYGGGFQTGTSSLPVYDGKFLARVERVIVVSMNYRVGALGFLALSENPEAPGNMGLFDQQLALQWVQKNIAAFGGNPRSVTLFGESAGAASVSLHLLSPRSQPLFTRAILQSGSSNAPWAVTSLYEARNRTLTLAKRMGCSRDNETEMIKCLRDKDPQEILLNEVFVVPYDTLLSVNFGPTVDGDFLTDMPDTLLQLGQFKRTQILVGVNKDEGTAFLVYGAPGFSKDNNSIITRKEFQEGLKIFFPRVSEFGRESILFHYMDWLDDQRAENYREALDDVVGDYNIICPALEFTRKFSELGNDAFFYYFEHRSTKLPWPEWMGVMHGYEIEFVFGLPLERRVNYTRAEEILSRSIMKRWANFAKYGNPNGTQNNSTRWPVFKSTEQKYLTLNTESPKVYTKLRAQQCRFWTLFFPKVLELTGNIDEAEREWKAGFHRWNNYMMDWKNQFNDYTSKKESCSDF
pIC50: −log10 of the molar value.

| COMPOUND | TARGET SYSTEM | SIGN QUALIFIER | pIC50 |
| --- | --- | --- | --- |
| O=C1c2ccccc2C(=O)N1CCCCCCCCN1CCc2ccccc2C1 [Compound 13] | EqBuChE (Equus caballus, UniProt P81908) | = | 6.21 |
| O=C1c2ccccc2C(=O)N1CCCCCCCCN1CCCC1 [Compound 4] | EqBuChE (Equus caballus, UniProt P81908) | = | 5.49 |
| CCN(CC)CCCCCCn1ccc2ccccc21 [Compound 33] | EqBuChE (Equus caballus, UniProt P81908) | = | 4.54 |
| O=C1c2ccccc2C(=O)N1CCCCCN1CCOCC1 [Compound 5] | EqBuChE (Equus caballus, UniProt P81908) | < | 4.30 |
| O=C1c2ccccc2S(=O)(=O)N1CCCCCCCNCc1ccccc1F [Compound 41] | EqBuChE (Equus caballus, UniProt P81908) | = | 5.30 |
| O=C1c2ccccc2C(=O)N1CCCCN1CCc2ccccc2C1 [Compound 9] | EqBuChE (Equus caballus, UniProt P81908) | = | 4.89 |
| CCN(CC)CCCCn1ccc2ccccc21 [Compound 31] | EqBuChE (Equus caballus, UniProt P81908) | = | 4.59 |
| O=C1c2ccccc2C(=O)N1CCCCCCCN1CCc2ccccc2C1 [Compound 12] | EqBuChE (Equus caballus, UniProt P81908) | = | 5.93 |
| O=C1c2ccccc2S(=O)(=O)N1CCCCCNCc1ccccc1F [Compound 39] | EqBuChE (Equus caballus, UniProt P81908) | < | 4.30 |
| O=C1c2ccccc2S(=O)(=O)N1CCCCCNCc1cccc(Cl)c1 [Compound 42] | EqBuChE (Equus caballus, UniProt P81908) | < | 4.30 |
| CCN(CC)CCCCCCCCn1ccc2ccccc21 [Compound 35] | EqBuChE (Equus caballus, UniProt P81908) | = | 5.46 |
| O=C1c2ccccc2C(=O)N1CCCCCCCCN1CCOCC1 [Compound 8] | EqBuChE (Equus caballus, UniProt P81908) | < | 4.30 |
| CCN(CC)CCCCCCCn1ccc2ccccc21 [Compound 34] | EqBuChE (Equus caballus, UniProt P81908) | = | 5.83 |
| O=C1c2ccccc2S(=O)(=O)N1CCCCCCNCc1cccc(Cl)c1 [Compound 43] | EqBuChE (Equus caballus, UniProt P81908) | = | 5.18 |
| O=C1c2ccccc2C(=O)N1CCCCCCN1CCc2ccccc2C1 [Compound 11] | EqBuChE (Equus caballus, UniProt P81908) | = | 5.29 |
| O=C1c2ccccc2S(=O)(=O)N1CCCCCCNCc1ccccc1F [Compound 40] | EqBuChE (Equus caballus, UniProt P81908) | < | 4.30 |
| CCN(CC)CCCCCN1CCc2ccccc2C1 [Compound 20] | EqBuChE (Equus caballus, UniProt P81908) | < | 4.30 |
| CCN(CC)CCCCCCCN1CCc2ccccc2C1 [Compound 22] | EqBuChE (Equus caballus, UniProt P81908) | = | 4.43 |
| CCN(CC)CCCCCCCCN1CCc2ccccc2C1 [Compound 23] | EqBuChE (Equus caballus, UniProt P81908) | = | 4.85 |
| CCN(CC)CCCCCn1ccc2ccccc21 [Compound 32] | EqBuChE (Equus caballus, UniProt P81908) | = | 4.65 |
| O=C1c2ccccc2C(=O)N1CCCCCN1CCCC1 [Compound 1] | EqBuChE (Equus caballus, UniProt P81908) | < | 4.30 |
| O=C1c2ccccc2C(=O)N1CCCCCCCN1CCOCC1 [Compound 7] | EqBuChE (Equus caballus, UniProt P81908) | < | 4.30 |
| O=C1c2ccccc2C(=O)N1CCCCCCN1CCOCC1 [Compound 6] | EqBuChE (Equus caballus, UniProt P81908) | < | 4.30 |
| O=C1c2ccccc2C(=O)N1CCCCCCCCCCN1CCc2ccccc2C1 [Compound 14] | EqBuChE (Equus caballus, UniProt P81908) | = | 5.76 |
| O=C1c2ccccc2S(=O)(=O)N1CCCCCCCNCc1cccc(Cl)c1 [Compound 44] | EqBuChE (Equus caballus, UniProt P81908) | = | 5.61 |
| O=C1c2ccccc2C(=O)N1CCCCCCCN1CCCC1 [Compound 3] | EqBuChE (Equus caballus, UniProt P81908) | < | 4.30 |
| O=C1c2ccccc2C(=O)N1CCCCCCCCCCCCN1CCc2ccccc2C1 [Compound 15] | EqBuChE (Equus caballus, UniProt P81908) | = | 5.44 |
| O=C1c2ccccc2C(=O)N1CCCCCN1CCc2ccccc2C1 [Compound 10] | EqBuChE (Equus caballus, UniProt P81908) | = | 5.27 |
| CCN(CC)CCCCCCN1CCc2ccccc2C1 [Compound 21] | EqBuChE (Equus caballus, UniProt P81908) | < | 4.30 |
| CCN(CC)CCCn1ccc2ccccc21 [Compound 30] | EqBuChE (Equus caballus, UniProt P81908) | < | 4.30 |
| O=C1c2ccccc2C(=O)N1CCCCCCN1CCCC1 [Compound 2] | EqBuChE (Equus caballus, UniProt P81908) | < | 4.30 |

---

conditions: PAMPA-BBB, 2 h at 37 °C, means of two replicates

| COMPOUND | Log Pe |
| --- | --- |
| Cn1c(=O)c2[nH]cnc2n(C)c1=O [Theophylline, reference compound] | –6.3 |
| O=C1c2ccccc2C(=O)N1CCCCCCCCN1CCCC1 | –4.0 |
| O=C1c2ccccc2S(=O)(=O)N1CCCCCNCc1cccc(Cl)c1 | –4.3 |
| O=C1c2ccccc2S(=O)(=O)N1CCCCCNCc1ccccc1F | –4.0 |
| O=C1c2ccccc2C(=O)N1CCCCCCCCN1CCc2ccccc2C1 | –4.2 |
| O=C1c2ccccc2C(=O)N1CCCCCCCN1CCOCC1 | –4.2 |

---

biological target: Aβ1–42 (Homo sapiens); construct: Recombinant human HFIP-pretreated Aβ1–42 peptide; purchased Merck Millipore Lot number 2387442; assay: Thioflavin-T fluorometric assay of self-induced Aβ1–42 aggregation; type: biochemical; settings: 10 µM compound, 1.5 µM Aβ1–42; mean ± SD; <10 = defined as not active; read-out: Aβ1–42 Aggreg. % of inhibition
Sequence (P05067 672-713): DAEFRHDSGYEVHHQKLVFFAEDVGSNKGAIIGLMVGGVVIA

| STRUCTURE NOTATION | inhibition at 10 µM |
| --- | --- |
| O=C1c2ccccc2S(=O)(=O)N1CCCCCNCc1cccc(Cl)c1 | 16.5% |
| O=C1c2ccccc2C(=O)N1CCCCCCCN1CCOCC1 | 17.1% |
| CCN(CC)CCCCCCCCn1ccc2ccccc21 | 16.6% |
| CCN(CC)CCCCCCCCN1CCc2ccccc2C1 | < 10% |
| O=C1c2ccccc2S(=O)(=O)N1CCCCCNCc1ccccc1F | 12.3% |
| O=C1c2ccccc2C(=O)N1CCCCCCCCN1CCc2ccccc2C1 | 35.8% |
| O=C1c2ccccc2C(=O)N1CCCCCCCCN1CCCC1 | 15.2% |
